These entries and their values trace back to paper PMC11316643.

Molecular target: UniProt:P41145
Sequence (P41145 whole entry): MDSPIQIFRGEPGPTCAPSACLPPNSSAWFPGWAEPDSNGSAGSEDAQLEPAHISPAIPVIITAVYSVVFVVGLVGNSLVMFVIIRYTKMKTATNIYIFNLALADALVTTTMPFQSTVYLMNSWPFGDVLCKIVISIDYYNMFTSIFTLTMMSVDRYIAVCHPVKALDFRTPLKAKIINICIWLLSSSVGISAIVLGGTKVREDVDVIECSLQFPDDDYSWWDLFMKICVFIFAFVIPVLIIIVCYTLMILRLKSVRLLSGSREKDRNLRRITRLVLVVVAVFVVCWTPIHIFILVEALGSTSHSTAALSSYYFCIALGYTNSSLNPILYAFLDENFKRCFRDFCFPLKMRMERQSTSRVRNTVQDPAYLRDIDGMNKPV
Assay: 35S-GTPγS binding assay of KOR G protein activation in CHO-hKOR membranes
Format: biochemical
Reported property: KOR agonist activity (GTPγS) in words

C(=C/c1nnc(-c2ccccn2)n1Cc1ccco1)/c1ccccc1 [5c] = dramatic loss in potency
Cc1ccc(/C=C/c2nnc(-c3ccccn3)n2Cc2ccco2)cc1C(F)(F)F [5d] = dramatic loss in potency
